Where do these numbers come from? They come from the supplement of paper PMC9112550.

# Test system: Escherichia coli TOP10;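 further: peptides expressed intracellularly from a pBAD plasmid library in pooled LB shake-flask culture, induced with 0.3% L-arabinose, DNA abundance read by NGS, three biological replicates, DESeq2 with apeglm shrinkage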
# assayExplanation: shrunken log2 fold change of peptide-encoding DNA abundance (4.5 h post-induction vs induction); higher = less antimicrobial activity (less host growth inhibition)
# conditionNotes: time post-induction: 4.5 h; library: site-saturation at positions 5, 18, 19, 20
shrunken log2 fold change reference
The answer should be a number; do not append a unit.

{"recordSequence": "RRIRCRPPRLPRPRPRPTDNPRP", "shrunken log2 fold change": -0.58}
{"recordSequence": "RRIRMRPPRLPRPRPRPHELPRP", "shrunken log2 fold change": 0.627}
{"recordSequence": "RRIRHRPPRLPRPRPRPCDCPRP", "shrunken log2 fold change": -0.138}
{"recordSequence": "RRIRMRPPRLPRPRPRPVQKPRP", "shrunken log2 fold change": 0.069}
{"recordSequence": "RRIRCRPPRLPRPRPRPPRTPRP", "shrunken log2 fold change": 0.818}

Which shrunken log2 fold change is reported for this sequence? `RRIRCRPPRLPRPRPRPPKQPRP`
0.123

Which shrunken log2 fold change is reported for this sequence? `RRIRWRPPRLPRPRPRPAIRPRP`
0.639

Which shrunken log2 fold change is reported for this sequence? `RRIRYRPPRLPRPRPRPDFNPRP`
-1.62

Which shrunken log2 fold change is reported for this sequence? `RRIRQRPPRLPRPRPRPGDPPRP`
0.0572

Which shrunken log2 fold change is reported for this sequence? `RRIRSRPPRLPRPRPRPLQLPRP`
-0.456
